system_under_test: DNA topoisomerase 1 (Homo sapiens)
procedure_text: Topoisomerase I DNA relaxation activity was evaluated by Fluorescence assay using Ethidium Bromide before heat denaturation of pBR322 DNA at concentration 250 uM
conditions_used: Escherichia coli
Param label: returns Yes when Change < 10%, returns No otherwise, including exact equality.

Worked examples follow.
[[record]]
entry_smiles = "COC(=O)c1cc(NC(=O)Cn2cc(C3=C(c4c[nH]c5ccccc45)C(=O)NC3=O)c3ccccc32)cn1C"
system_under_test = "DNA topoisomerase 1 (Homo sapiens)"
label_class = "Yes"

[[record]]
entry_smiles = "COC(=O)c1cc(NC(=O)c2cc(NC(=O)Cn3cc(C4=C(c5c[nH]c6ccccc56)C(=O)NC4=O)c4ccccc43)cn2C)cn1C"
system_under_test = "DNA topoisomerase 1 (Homo sapiens)"
label_class = "No"

[[record]]
entry_smiles = "COC(=O)c1cc(NC(=O)c2cc(NC(=O)c3cc(NC(=O)Cn4cc(C5=C(c6c[nH]c7ccccc67)C(=O)NC5=O)c5ccccc54)cn3C)cn2C)cn1C"
system_under_test = "DNA topoisomerase 1 (Homo sapiens)"
label_class = "No"

[[record]]
entry_smiles = "CN(C)CCCNC(=O)c1cc(NC(=O)c2cc(NC(=O)c3cc(NC(=O)Cn4cc(C5=C(c6c[nH]c7ccccc67)C(=O)NC5=O)c5ccccc54)cn3C)cn2C)cn1C"
system_under_test = "DNA topoisomerase 1 (Homo sapiens)"
label_class = "No"


Now examine the next entry.
Task: Please let me know if CN(C)CCCNC(=O)c1cc(NC(=O)c2cc(NC(=O)Cn3cc(C4=C(c5c[nH]c6ccccc56)C(=O)NC4=O)c4ccccc43)cn2C)cn1C shows Change below 10%.
Output: No

* * *

Overview of recorded Change for various compounds
system_under_test: DNA topoisomerase 1 (Homo sapiens) (UniProt P11387)
Sequence (whole entry): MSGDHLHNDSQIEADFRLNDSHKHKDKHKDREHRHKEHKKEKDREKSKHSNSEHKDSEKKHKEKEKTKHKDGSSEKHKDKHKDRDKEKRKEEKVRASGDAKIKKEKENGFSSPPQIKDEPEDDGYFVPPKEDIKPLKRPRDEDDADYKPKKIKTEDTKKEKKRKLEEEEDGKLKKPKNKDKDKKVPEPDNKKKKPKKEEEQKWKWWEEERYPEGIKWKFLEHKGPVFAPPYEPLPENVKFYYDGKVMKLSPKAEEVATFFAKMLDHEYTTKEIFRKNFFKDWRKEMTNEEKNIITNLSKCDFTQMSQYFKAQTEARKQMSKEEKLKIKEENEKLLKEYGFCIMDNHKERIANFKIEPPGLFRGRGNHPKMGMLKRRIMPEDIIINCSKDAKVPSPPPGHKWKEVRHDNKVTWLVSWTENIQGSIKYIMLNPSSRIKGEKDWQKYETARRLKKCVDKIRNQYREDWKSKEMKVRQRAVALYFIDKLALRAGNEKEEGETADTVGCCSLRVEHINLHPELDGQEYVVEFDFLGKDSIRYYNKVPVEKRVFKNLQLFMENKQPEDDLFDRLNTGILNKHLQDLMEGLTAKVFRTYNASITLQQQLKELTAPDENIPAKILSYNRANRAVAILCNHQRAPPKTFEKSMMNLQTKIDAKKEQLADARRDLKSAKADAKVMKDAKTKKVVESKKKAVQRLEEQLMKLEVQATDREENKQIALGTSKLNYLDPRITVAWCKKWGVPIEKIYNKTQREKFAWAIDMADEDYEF
procedure_text: Topoisomerase I […] was evaluated by Fluorescence assay using Ethidium Bromide before heat denaturation of pBR322 DNA at concentration 250 uM
conditions_used: Escherichia coli
Note: unit % is implicit; provide only the numeric part.

[[record]]
entry_smiles = "CN(C)CCCNC(=O)c1cc(NC(=O)c2cc(NC(=O)c3cc(NC(=O)Cn4cc(C5=C(c6c[nH]c7ccccc67)C(=O)NC5=O)c5ccccc54)cn3C)cn2C)cn1C"
system_under_test = "DNA topoisomerase 1 (Homo sapiens) (UniProt P11387)"
readout_value = 28

[[record]]
entry_smiles = "COC(=O)c1cc(NC(=O)c2cc(NC(=O)Cn3cc(C4=C(c5c[nH]c6ccccc56)C(=O)NC4=O)c4ccccc43)cn2C)cn1C"
system_under_test = "DNA topoisomerase 1 (Homo sapiens) (UniProt P11387)"
readout_value = 33

[[record]]
entry_smiles = "CN(C)CCCNC(=O)c1cc(NC(=O)c2cc(NC(=O)Cn3cc(C4=C(c5c[nH]c6ccccc56)C(=O)NC4=O)c4ccccc43)cn2C)cn1C"
system_under_test = "DNA topoisomerase 1 (Homo sapiens) (UniProt P11387)"
readout_value = 32

[[record]]
entry_smiles = "CN(C)CCCNC(=O)c1cc(NC(=O)Cn2cc(C3=C(c4c[nH]c5ccccc45)C(=O)NC3=O)c3ccccc32)cn1C"
system_under_test = "DNA topoisomerase 1 (Homo sapiens) (UniProt P11387)"
readout_value = 18

[[record]]
entry_smiles = "COC(=O)c1cc(NC(=O)Cn2cc(C3=C(c4c[nH]c5ccccc45)C(=O)NC3=O)c3ccccc32)cn1C"
system_under_test = "DNA topoisomerase 1 (Homo sapiens) (UniProt P11387)"
readout_value = 2


Please find the next compound below.
Task: Please give the measured Change for this compound: COC(=O)c1cc(NC(=O)c2cc(NC(=O)c3cc(NC(=O)Cn4cc(C5=C(c6c[nH]c7ccccc67)C(=O)NC5=O)c5ccccc54)cn3C)cn2C)cn1C
Output: 52

* * *

Reported inhibition values are given for each entry in this list.
system_under_test: DNA topoisomerase 1 (Homo sapiens) (UniProt P11387)
Sequence (whole entry): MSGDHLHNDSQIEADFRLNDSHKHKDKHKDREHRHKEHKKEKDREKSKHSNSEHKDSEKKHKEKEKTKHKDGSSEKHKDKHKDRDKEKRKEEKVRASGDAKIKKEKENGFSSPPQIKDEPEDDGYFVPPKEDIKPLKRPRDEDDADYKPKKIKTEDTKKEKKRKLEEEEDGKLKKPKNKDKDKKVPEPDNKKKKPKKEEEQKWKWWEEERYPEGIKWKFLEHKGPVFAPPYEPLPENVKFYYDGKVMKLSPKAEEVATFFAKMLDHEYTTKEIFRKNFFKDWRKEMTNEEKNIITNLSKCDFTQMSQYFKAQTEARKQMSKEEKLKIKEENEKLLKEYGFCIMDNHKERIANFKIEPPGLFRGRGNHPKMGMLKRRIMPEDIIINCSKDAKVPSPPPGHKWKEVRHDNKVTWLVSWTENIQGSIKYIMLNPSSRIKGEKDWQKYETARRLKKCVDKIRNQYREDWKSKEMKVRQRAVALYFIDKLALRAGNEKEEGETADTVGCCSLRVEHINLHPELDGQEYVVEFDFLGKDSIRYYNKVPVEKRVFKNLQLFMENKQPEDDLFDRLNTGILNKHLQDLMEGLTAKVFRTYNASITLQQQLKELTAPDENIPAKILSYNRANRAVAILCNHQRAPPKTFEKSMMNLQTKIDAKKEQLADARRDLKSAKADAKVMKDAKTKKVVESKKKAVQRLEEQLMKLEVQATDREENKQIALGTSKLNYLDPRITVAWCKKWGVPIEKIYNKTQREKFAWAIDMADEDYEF
procedure_text: Topoisomerase I DNA relaxation activity was evaluated by Agarose Gel Electrophoresis test at concentration 50 uM
conditions_used: Escherichia coli

# example entries with known answers
[[record]]
entry_smiles = "COC(=O)c1cc(NC(=O)c2cc(NC(=O)c3cc(NC(=O)Cn4cc(C5=C(c6c[nH]c7ccccc67)C(=O)NC5=O)c5ccccc54)cn3C)cn2C)cn1C"
readout_value = "0%"

[[record]]
entry_smiles = "CN(C)CCCNC(=O)c1cc(NC(=O)Cn2cc(C3=C(c4c[nH]c5ccccc45)C(=O)NC3=O)c3ccccc32)cn1C"
readout_value = "0%"

[[record]]
entry_smiles = "COC(=O)c1cc(NC(=O)Cn2cc(C3=C(c4c[nH]c5ccccc45)C(=O)NC3=O)c3ccccc32)cn1C"
readout_value = "0%"

[[record]]
entry_smiles = "CN(C)CCCNC(=O)c1cc(NC(=O)c2cc(NC(=O)c3cc(NC(=O)Cn4cc(C5=C(c6c[nH]c7ccccc67)C(=O)NC5=O)c5ccccc54)cn3C)cn2C)cn1C"
readout_value = "50%"

[[record]]
entry_smiles = "CN(C)CCCNC(=O)c1cc(NC(=O)c2cc(NC(=O)Cn3cc(C4=C(c5c[nH]c6ccccc56)C(=O)NC4=O)c4ccccc43)cn2C)cn1C"
readout_value = "25%"


Now consider the entry below.
Task: What inhibition value was documented for this compound, COC(=O)c1cc(NC(=O)c2cc(NC(=O)Cn3cc(C4=C(c5c[nH]c6ccccc56)C(=O)NC4=O)c4ccccc43)cn2C)cn1C ?
Output: 0%

* * *

system_under_test: DNA topoisomerase 1 (Homo sapiens)
procedure_text: Topoisomerase I DNA relaxation activity was evaluated by Fluorescence assay using Ethidium Bromide after heat denaturation of pBR322 DNA at concentration 100 uM
conditions_used: Escherichia coli
Item-by-item account of Change
Field format: number, assumed %, no unit text.

The examples below pair each entry with its known result.
[[record]]
entry_smiles = "CN(C)CCCNC(=O)c1cc(NC(=O)c2cc(NC(=O)c3cc(NC(=O)Cn4cc(C5=C(c6c[nH]c7ccccc67)C(=O)NC5=O)c5ccccc54)cn3C)cn2C)cn1C"
readout_value = 15

[[record]]
entry_smiles = "COC(=O)c1cc(NC(=O)c2cc(NC(=O)c3cc(NC(=O)Cn4cc(C5=C(c6c[nH]c7ccccc67)C(=O)NC5=O)c5ccccc54)cn3C)cn2C)cn1C"
readout_value = 0


Task: What value of measured Change is listed for CC[C@@]1(O)C(=O)OCc2c1cc1n(c2=O)Cc2cc3ccccc3nc2-1 ?
Output: 3

Task: Same lookup for COC(=O)c1cc(NC(=O)c2cc(NC(=O)Cn3cc(C4=C(c5c[nH]c6ccccc56)C(=O)NC4=O)c4ccccc43)cn2C)cn1C , please.
Output: 12

Task: Queued: CN(C)CCCNC(=O)c1cc(NC(=O)c2cc(NC(=O)Cn3cc(C4=C(c5c[nH]c6ccccc56)C(=O)NC4=O)c4ccccc43)cn2C)cn1C
Output: 15

Task: Now this one: COC(=O)c1cc(NC(=O)Cn2cc(C3=C(c4c[nH]c5ccccc45)C(=O)NC3=O)c3ccccc32)cn1C
Output: 12

Task: Would you kindly repeat that for CN(C)CCCNC(=O)c1cc(NC(=O)Cn2cc(C3=C(c4c[nH]c5ccccc45)C(=O)NC3=O)c3ccccc32)cn1C ?
Output: 0
